Listing of recorded remaining activity at 1 µM by entry.
Target: PAK2 (Homo sapiens, UniProt Q13177)
Construct: lines 1-140) and Reaction Biology
Sequence (Q13177 whole entry): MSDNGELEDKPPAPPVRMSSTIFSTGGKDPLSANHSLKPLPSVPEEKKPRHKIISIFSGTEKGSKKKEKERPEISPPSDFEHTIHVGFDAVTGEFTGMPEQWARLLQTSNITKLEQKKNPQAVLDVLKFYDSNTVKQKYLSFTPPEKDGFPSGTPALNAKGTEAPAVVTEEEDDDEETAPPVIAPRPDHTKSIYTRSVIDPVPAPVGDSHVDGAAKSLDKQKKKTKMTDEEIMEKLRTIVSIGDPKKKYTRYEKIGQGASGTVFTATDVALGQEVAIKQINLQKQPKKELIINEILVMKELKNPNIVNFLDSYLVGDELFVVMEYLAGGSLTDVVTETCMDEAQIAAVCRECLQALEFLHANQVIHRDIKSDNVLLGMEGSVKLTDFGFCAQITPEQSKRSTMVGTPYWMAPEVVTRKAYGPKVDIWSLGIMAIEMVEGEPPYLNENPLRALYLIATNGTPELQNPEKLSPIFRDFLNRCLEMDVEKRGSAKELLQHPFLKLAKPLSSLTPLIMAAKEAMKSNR
Assay: Dundee kinase panel
Type: biochemical
Conditions: read-out: residual activity
Description: Compounds were screened at 1 μM. For key hits, pIC50 values were then determined by HTRF as above. […] Stability in mouse and human liver microsomes was determined by Cyprotex.
Quantity Measured: remaining activity at 1 µM (%)

COCCOc1ccc(-c2cn(-c3ccccc3)c3nc[nH]c(=O)c23)cc1 | 93
O=C1Cc2c([nH]c3ccc(Br)cc23)-c2ccccc2N1 | 96
Oc1ncnc2c1c(-c1ccccc1)cn2-c1ccccc1 | 79
O=C1Nc2ccc(I)cc2/C1=C/c1cc(Br)c(O)c(Br)c1 | 29
